B1: NCF4 (parent)
chain: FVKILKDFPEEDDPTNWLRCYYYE

Variants of: B1
assay.comment: protein stability index of a GFP-peptide fusion (GPS, HEK-293T) (PSI 1-6); higher = more stable;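 note: lentivirally expressed fusions sorted by FACS into six bins by GFP to DsRed ratio, PSI derived from sequencing read proportions per bin multiplied by bin number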
condition.description: c terminus: a fixed tail appended
recorded.endpoint: protein stability index
Reply briefly: the number, and no unit.

Return reported protein stability index; argument: N16R
1.47

Return reported protein stability index; argument: C20Y
1.9

Which protein stability index reading was recorded for the variant L18G ?
1.92

Requested field: protein stability index. Item: F8I
1.25

Recorded protein stability index of P9N , please.
2.15

Item K3E has what recorded protein stability index?
2

Field request: protein stability index | item: N16Q
2.05

What value of protein stability index has been reported for the following variant? C20F
2.03

Can you look up the measured protein stability index of Y23Q for me?
1.73

Given the variant L5N , what is its reported protein stability index?
1.68

Return reported protein stability index; argument: P14F
1.24

Sample K6D — what was its protein stability index?
1.96

Please look up its protein stability index: D13I
1.29

// query protein stability index value for entry Y21C
1.61

Using the record for E11Q , report its protein stability index.
2.98

Entry under review: P9F . Reported protein stability index?
1.1

Could you tell me which protein stability index is on file for L5Y ?
2.23

For the variant shown here, C20K , give the reported protein stability index.
2.32

May I ask what protein stability index has been recorded for Y23M ?
2.06

Using the record for Y22H , report its protein stability index.
1.82

Entry K3D : reported protein stability index = ?
2.11

Given the variant V2T , what is its reported protein stability index?
2.4

Could you tell me which protein stability index is on file for K3T ?
2.48

I would be grateful if you could share the reported protein stability index for R19A .
2.27

Please look up its protein stability index: T15H
1.3

// protein stability index lookup, key: V2Q
3.03

If you can, please state the reported protein stability index value of L18R .
1.9

Returns the measured protein stability index for the input variant. Input: D12Y
2.35

What measured protein stability index goes with D13S ?
2.46

Item under review: K3A . Reported protein stability index?
2.19
